Origin of the recorded values: ChEMBL document CHEMBL1961873

The entries below come with measured inhibition values attached.
- TARGET: Phosphatidylinositol 4,5-bisphosphate 3-kinase catalytic subunit alpha isoform (Homo sapiens) (UniProt P42336);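 note: values are mean inhibition figures from the GSK PKIS kinase panel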
- Sequence (P42336 whole entry, canonical isoform): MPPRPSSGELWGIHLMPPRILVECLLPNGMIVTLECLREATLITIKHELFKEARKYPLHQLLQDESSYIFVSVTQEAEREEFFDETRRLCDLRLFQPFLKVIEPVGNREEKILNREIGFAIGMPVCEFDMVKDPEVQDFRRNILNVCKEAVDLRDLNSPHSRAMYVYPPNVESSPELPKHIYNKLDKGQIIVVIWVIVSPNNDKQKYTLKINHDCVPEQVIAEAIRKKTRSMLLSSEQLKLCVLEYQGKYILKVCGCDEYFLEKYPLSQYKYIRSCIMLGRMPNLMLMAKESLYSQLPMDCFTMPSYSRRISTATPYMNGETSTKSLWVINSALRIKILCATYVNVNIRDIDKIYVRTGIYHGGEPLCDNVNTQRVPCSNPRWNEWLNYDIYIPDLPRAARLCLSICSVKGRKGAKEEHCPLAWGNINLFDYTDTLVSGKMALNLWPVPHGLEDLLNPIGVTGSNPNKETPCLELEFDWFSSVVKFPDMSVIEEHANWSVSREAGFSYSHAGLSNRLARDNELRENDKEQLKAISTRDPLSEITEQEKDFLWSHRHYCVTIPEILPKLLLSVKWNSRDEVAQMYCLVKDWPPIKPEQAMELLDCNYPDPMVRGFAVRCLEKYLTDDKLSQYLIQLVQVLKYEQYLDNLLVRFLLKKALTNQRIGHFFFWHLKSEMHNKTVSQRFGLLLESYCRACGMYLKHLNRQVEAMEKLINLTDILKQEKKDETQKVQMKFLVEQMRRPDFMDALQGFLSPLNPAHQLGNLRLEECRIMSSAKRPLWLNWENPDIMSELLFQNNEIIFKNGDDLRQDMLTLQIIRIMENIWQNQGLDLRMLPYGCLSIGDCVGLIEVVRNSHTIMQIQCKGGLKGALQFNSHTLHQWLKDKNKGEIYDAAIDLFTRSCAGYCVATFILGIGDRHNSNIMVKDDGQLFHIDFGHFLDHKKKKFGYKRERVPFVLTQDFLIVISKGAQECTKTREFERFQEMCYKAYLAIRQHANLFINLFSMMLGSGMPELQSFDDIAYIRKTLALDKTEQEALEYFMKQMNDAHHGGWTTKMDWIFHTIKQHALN
- SETTINGS: at 0.1 µM
ENDPOINT_NAME: inhibition (%)

1) NS(=O)(=O)c1ccc(-c2cc3ccncc3cc2OCc2ccccc2)cc1 3.71
2) Cc1ccc(Nc2ccnc(Nc3cccc(C(N)=O)c3)n2)cc1O 1.78
3) Cc1ccc(NC(=O)CC2CC2)cc1-c1ccc(C(=O)NCC2CC2)cc1 2.05
4) C[C@@H](Oc1cc(-n2cnc3ccc(OCC4CCN(C)CC4)cc32)sc1C(N)=O)c1ccccc1C(F)(F)F -1.6
5) NC(=O)c1cccc(Nc2nccc(Nc3cccc(F)c3)n2)c1 -0.28
6) COC(=O)c1ccc2c(c1)C(=Cc1cc(Br)c(O)c(Br)c1)C(=O)N2 20.2
7) COc1cc(/C=N/Nc2ncnc3c2cnn3C(C)C)ccc1O 19
8) N#Cc1c(NC(=O)c2ccccc2F)sc2c1CCCC2 -2.15
9) CN(C)CCCn1c(-c2nonc2N)nc2cnccc21 2.84
10) Cc1ccc2c(-c3ccnc(Nc4ccc5c(c4)OCCO5)n3)c(-c3ccc(C(F)(F)F)cc3)nn2n1 -1.09
11) NS(=O)(=O)c1cccc(Nc2cc(-c3ccc(F)cc3)n[nH]2)c1 1.31
12) Nc1nccc(-c2c(-c3ccc(F)cc3)ncn2CCCN2CCOCC2)n1 3.59
13) COC(=O)Nc1nc2cc(Oc3ccc(NC(=O)Nc4cccc(Br)c4)cc3)ccc2[nH]1 0.99

====

- System: Platelet-derived growth factor receptor alpha (Homo sapiens), P16234 [D842V]
- Sequence (P16234 whole entry D842V): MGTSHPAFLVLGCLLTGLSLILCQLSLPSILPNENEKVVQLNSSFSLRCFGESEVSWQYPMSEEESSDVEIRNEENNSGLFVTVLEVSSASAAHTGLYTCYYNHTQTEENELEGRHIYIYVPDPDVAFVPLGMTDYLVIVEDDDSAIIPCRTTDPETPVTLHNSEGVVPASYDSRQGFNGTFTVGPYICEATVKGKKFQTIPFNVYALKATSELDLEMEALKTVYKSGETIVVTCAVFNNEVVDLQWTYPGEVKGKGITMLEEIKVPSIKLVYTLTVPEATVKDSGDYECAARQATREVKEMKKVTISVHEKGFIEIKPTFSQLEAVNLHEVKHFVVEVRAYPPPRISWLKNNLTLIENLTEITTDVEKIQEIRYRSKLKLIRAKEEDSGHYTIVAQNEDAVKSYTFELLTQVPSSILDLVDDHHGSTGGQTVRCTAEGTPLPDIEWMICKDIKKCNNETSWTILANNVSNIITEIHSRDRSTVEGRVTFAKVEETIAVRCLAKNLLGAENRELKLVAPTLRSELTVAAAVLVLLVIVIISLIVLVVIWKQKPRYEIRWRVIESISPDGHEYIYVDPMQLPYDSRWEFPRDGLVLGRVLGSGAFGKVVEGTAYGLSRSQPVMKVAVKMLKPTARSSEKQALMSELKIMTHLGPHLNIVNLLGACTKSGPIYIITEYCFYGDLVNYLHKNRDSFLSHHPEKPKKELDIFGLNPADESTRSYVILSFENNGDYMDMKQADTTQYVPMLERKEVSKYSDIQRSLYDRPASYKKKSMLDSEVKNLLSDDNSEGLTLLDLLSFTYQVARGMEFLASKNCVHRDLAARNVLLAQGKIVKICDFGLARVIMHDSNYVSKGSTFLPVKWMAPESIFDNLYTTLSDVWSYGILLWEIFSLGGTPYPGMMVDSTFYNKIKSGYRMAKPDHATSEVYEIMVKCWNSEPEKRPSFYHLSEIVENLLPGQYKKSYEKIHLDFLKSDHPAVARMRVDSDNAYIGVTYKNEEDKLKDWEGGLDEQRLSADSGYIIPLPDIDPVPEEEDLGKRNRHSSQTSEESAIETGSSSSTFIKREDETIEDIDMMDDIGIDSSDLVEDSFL
- SETTINGS: at 0.1 µM
The entries below come with measured inhibition values attached.
ENDPOINT_NAME: inhibition

1) CCS(=O)(=O)c1ccc(OC)c(Nc2ncc(-c3cccc(OC)c3)o2)c1 10.9%
2) CC(C)c1ccc2c(c1)NC(=O)/C2=N/Nc1ccc(S(N)(=O)=O)cc1 1.62%
3) CN(c1ccc(NC(=O)Nc2ccc(OC(F)(F)F)cc2)cc1)c1ccnc(Nc2cccc(S(N)(=O)=O)c2)n1 9.66%
4) c1ccc(Cc2nc3ccc(Nc4ncnc5ccccc45)cc3[nH]2)cc1 -0.75%
5) Nc1nccc(-c2c(-c3ccc(F)cc3)ncn2CCCN2CCOCC2)n1 1.96%
6) OCc1ccc(-c2nc(-c3ccccn3)c(-c3ccc4c(c3)OCO4)[nH]2)cc1 4.62%
7) Nc1nccc(C#Cc2cncnc2Nc2ccc(OCc3cccc(F)c3)c(Cl)c2)n1 4.4%
8) COc1cc2ncn(-c3cc(OCc4ccccc4S(C)(=O)=O)c(C#N)s3)c2cc1OC 47.5%
9) NS(=O)(=O)c1ccc(N/N=C2\C(=O)Nc3ccc(Cl)cc32)cc1 4.17%
10) NS(=O)(=O)c1cccc(-c2cc3ccncc3cc2OCc2ccccc2)c1 2.28%
11) Nc1nccc(-c2c(-c3ccc(F)cc3)nn3cc(C(F)(F)F)ccc23)n1 0.17%
12) CN(C)c1cc2c(Nc3ccc4c(cnn4Cc4ccccc4)c3)ncnc2cn1 0.65%
13) C[C@@H](Oc1cc(-n2cnc3ccc(OC[C@@H](O)CO)cc32)sc1C(N)=O)c1ccccc1Cl 4.15%
14) COc1ccc2ncnc(Nc3ccc(OCc4ccccc4)cc3)c2c1 0.76%
15) COc1cc(Nc2nccc(-c3cnn4ncccc34)n2)cc(OC)c1 12.6%
16) CCn1c(-c2nonc2N)nc2ccc(F)cc21 3.01%

====

- TARGET: Calcium/calmodulin-dependent protein kinase type II subunit alpha (Homo sapiens);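 note: reported value is a mean percent inhibition of CAMK2A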
- SETTINGS: at 1 µM
ENDPOINT_NAME: inhibition (%)

1) Cc1cc(-c2ccccn2)cc(C)c1/C=C/c1cncc(-c2nn[nH]n2)c1 1.59
2) Oc1cccc(-c2nc(-c3ccccc3)[nH]c2-c2ccncc2)c1 3.17
3) COC(=O)c1cncc(/C=C/c2c(C)cc(O)cc2C)c1 3.06
4) COc1cccc(-n2ncc3c(N/N=C/c4ccc(S(C)(=O)=O)cc4)ncnc32)c1 1.01
5) Cc1ccc(Nc2ccnc(Nc3cccc(C(N)=O)c3)n2)cc1O 3.19
6) O=C1Nc2ccc(-c3cccnc3)cc2C1=Cc1cc(Br)c(O)c(Br)c1 5.84

====

The entries below come with measured inhibition values attached.
- TARGET: Casein kinase I isoform gamma-1 (Homo sapiens);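 note: reported as mean inhibition, part of GSK PKIS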
- SETTINGS: at 0.1 µM
ENDPOINT_NAME: inhibition

1. N#Cc1c(NC(=O)c2ccccc2F)sc2c1CCCC2 -1.23%
2. O=C(Nc1ccc(Oc2ccc3[nH]c(NC(=O)c4ccco4)nc3c2)cc1)Nc1cc(C(F)(F)F)ccc1F -3.78%
3. Cc1cc(Cl)cc2c1NC(=O)C2=NNc1ccc(S(N)(=O)=O)cc1 1.63%
4. CCS(=O)(=O)c1ccc(OC)c(Nc2nccc(N(C)c3ccc4c(C)n[nH]c4c3)n2)c1 4.4%
5. CN(C)CCCn1c(-c2nonc2N)nc2cnccc21 4.45%
6. NC(=O)c1sc(-n2cnc3ccccc32)cc1OCc1ccccc1Br 3.55%
7. Cc1ccc(O)cc1Nc1ccnc2ccc(S(C)(=O)=O)cc12 4.05%
8. c1ccc(Cc2nc3ccc(Nc4ncnc5ccccc45)cc3[nH]2)cc1 2.6%

====

- TARGET: G protein-coupled receptor kinase 6 (Homo sapiens) (UniProt P43250);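 note: values are averaged percent inhibition of GRK6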
- Sequence (P43250 whole entry, looked up): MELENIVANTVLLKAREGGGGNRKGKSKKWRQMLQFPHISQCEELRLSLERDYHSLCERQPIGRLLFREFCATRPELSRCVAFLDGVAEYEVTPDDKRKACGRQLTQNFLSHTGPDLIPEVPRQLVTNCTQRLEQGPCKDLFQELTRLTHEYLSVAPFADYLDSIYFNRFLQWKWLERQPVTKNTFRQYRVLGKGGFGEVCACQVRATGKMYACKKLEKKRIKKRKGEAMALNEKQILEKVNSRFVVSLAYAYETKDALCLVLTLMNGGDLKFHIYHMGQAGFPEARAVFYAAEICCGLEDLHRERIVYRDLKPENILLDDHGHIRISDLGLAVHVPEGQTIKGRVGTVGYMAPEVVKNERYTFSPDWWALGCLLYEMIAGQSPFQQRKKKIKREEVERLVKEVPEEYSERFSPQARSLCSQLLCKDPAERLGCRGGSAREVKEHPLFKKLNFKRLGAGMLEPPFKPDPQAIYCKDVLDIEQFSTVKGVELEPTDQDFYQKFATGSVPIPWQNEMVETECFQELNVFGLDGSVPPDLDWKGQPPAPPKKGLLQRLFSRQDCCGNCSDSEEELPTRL
- SETTINGS: at 1 µM
The entries below come with measured inhibition values attached.
ENDPOINT_NAME: inhibition (%)

MOLECULE	READOUT_NUMBER
C[C@@H](Oc1cc(-n2cnc3ccc(OC[C@@H](O)CO)cc32)sc1C(N)=O)c1ccccc1Cl	4.23
CN1CCN(C(=O)c2ccc(NC(=O)Nc3ccc(N(C)c4ccnc(Nc5ccc(CS(C)(=O)=O)cc5)n4)cc3)cc2)CC1	1.86
c1ccc(Nc2ncc(-c3ccccc3)o2)cc1	4.8
O=C1Nc2ccccc2/C1=C/Nc1ccc2[nH]c(=O)[nH]c2c1	23.7
CS(=O)(=O)Nc1cccc(-c2ccc3c(NC(=O)C4CC4)n[nH]c3c2)c1	-0.72
CS(=O)(=O)CCNCc1nc(-c2ccc3ncnc(Nc4ccc(OCc5cccc(C(F)(F)F)c5)cc4)c3c2)cs1	0.06
Cc1cc(-c2ccccn2)cc(C)c1/C=C/c1cncc(-c2nn[nH]n2)c1	1.26
NS(=O)(=O)c1ccc(Nc2cc(-c3cccc(O)c3)n[nH]2)cc1	3.55
Nc1nccc(-c2c(-c3ccc(F)cc3)ncn2CCCN2CCOCC2)n1	5.62
ON=C1CCc2cc(-c3nc(C4CCNCC4)[nH]c3-c3ccncc3)ccc21	-2.74
Cc1ccc(Nc2ccnc(Nc3cccc(C(N)=O)c3)n2)cc1O	6.26
Cc1ccc(C(=O)NC2CC2)cc1-c1ccc2[nH]ncc2c1	-1.57
NS(=O)(=O)c1cccc(Nc2cc(-c3ccc(F)cc3)n[nH]2)c1	8.09
Cc1cc(O)cc(C)c1/C=C/c1cncc(C(=O)N(C)C)c1	0.05
Cc1ccc2c(-c3ccnc(Nc4cccc(C(F)(F)F)c4)n3)c(-c3ccccc3)nn2n1	2.48
CCn1c(-c2nonc2N)nc2c(C#CC(C)(C)O)nc(OCCNC)cc21	3.62
COC(=O)c1ccc2c(c1)C(=Cc1cc(Br)c(O)c(Br)c1)C(=O)N2	43.5
CN(C)C(=O)O[C@H]1CN[C@H](C#Cc2cc3ncnc(Nc4ccc(OCc5cccc(F)c5)c(Cl)c4)c3s2)C1	0.78
CCCN1CCCC(c2ccc(Nc3nc(Nc4cc(F)ccc4C(N)=O)c4cc[nH]c4n3)c(OC)c2)C1 (stereo not given)	25.3
C[C@@H](Oc1cc(-n2cnc3ccc(OCC4CCN(C)CC4)cc32)sc1C(N)=O)c1ccccc1C(F)(F)F	-1.03
NS(=O)(=O)c1ccc(NC=C2C(=O)Nc3ccc4ncsc4c32)cc1	35.5
Cc1ccc(O)cc1Nc1ccnc2ccc(S(C)(=O)=O)cc12	7.8
COc1cc2ncnc(Nc3ccc(C)c(O)c3)c2cc1OC	5.91
CC(C)c1ccc(Nc2nccc(-c3cnn4ncccc34)n2)cc1	3.14
OCc1ccc(-c2nc(-c3ccccn3)c(-c3ccc4c(c3)OCO4)[nH]2)cc1	1.18

====

- TARGET: Serine/threonine-protein kinase Sgk1 (Homo sapiens);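 note: mean percent inhibition of SGK1, from the GSK PKIS screening panel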
- Sequence (whole entry): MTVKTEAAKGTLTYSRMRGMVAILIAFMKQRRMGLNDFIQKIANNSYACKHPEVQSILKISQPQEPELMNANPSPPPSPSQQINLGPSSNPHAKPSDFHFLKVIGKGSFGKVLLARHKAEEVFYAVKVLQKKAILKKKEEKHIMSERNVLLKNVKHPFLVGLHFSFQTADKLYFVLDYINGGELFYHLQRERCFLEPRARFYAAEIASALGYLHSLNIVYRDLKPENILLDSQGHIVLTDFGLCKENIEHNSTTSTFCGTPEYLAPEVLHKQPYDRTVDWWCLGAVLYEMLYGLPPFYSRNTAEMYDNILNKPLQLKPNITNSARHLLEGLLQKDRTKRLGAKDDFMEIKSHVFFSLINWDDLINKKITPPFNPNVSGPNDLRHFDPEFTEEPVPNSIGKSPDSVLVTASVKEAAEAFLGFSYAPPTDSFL
- SETTINGS: at 1 µM
Record met whenever inhibition is at 3% or higher; record not met when lower.

1) CN(C)C(=O)O[C@H]1CN[C@H](C#Cc2cc3ncnc(Nc4ccc(OCc5cccc(F)c5)c(Cl)c4)c3s2)C1 not met
2) CCS(=O)(=O)c1ccc(OC)c(Nc2nccc(N(C)c3ccc4c(C)n[nH]c4c3)n2)c1 not met
3) COc1ccc2ncnc(Nc3ccc(OCc4ccccc4)cc3)c2c1 met
4) Cc1ccc(Nc2ccnc(Nc3cccc(C(N)=O)c3)n2)cc1O met
